# Tested on: human ovarian carcinoma NR+ line (SC3.2), NR transfectant
# measurement.protocol: Cytotoxicity, 18 h drug exposure, SKOV NR+ line (SC3.2)
# Type: cell-based
# condition.info: SC3.2 cells, 18 h drug exposure; read-out: SKOV NR+ IC50
pIC50: −log10 of the molar value.
property.measured: pIC50

>>> assay_value("O=C(NCCN1CCOCC1)c1cc(N2CC2)c([N+](=O)[O-])cc1[N+](=O)[O-] [Compound 3]")
6.35
>>> assay_value("O=C(NCCCN1CCOCC1)c1cc(N2CC2)c([N+](=O)[O-])cc1[N+](=O)[O-] [Compound 5]")
6.82
>>> assay_value("O=C(NCCN1CCOCC1)c1cc([N+](=O)[O-])cc([N+](=O)[O-])c1N1CC1 [Compound 18]")
4.96
>>> assay_value("O=C(NCCCCN1CCOCC1)c1cc(N2CC2)c([N+](=O)[O-])cc1[N+](=O)[O-] [Compound 6]")
6.52
>>> assay_value("CN(CCN1CCOCC1)C(=O)c1cc(N2CC2)c([N+](=O)[O-])cc1[N+](=O)[O-] [Compound 4]")
4.89
